Protocol: in vivo
Setup conditions: mouse, ip
For each record, write down the corresponding MTD.
One number for each entry, in mg/kg.

Sample answers from the record:
CCCN(CCC)[C@H]1C[C@H](O[C@H]2C[C@](O)(C(=O)CO)Cc3c(O)c4c(c(O)c32)C(=O)c2c(OC)cccc2C4=O)O[C@@H](C)[C@H]1O	20
CCCCC(=O)OCC(=O)[C@]1(O)Cc2c(O)c3c(c(O)c2[C@@H](O[C@H]2C[C@H](N(Cc4ccccc4)Cc4ccccc4)[C@H](O)[C@H](C)O2)C1)C(=O)c1c(OC)cccc1C3=O	20
CCCCC(=O)OCC(=O)[C@]1(O)Cc2c(O)c3c(c(O)c2[C@@H](O[C@H]2C[C@H](N(CCCC)CCCC)[C@H](O)[C@H](C)O2)C1)C(=O)c1c(OC)cccc1C3=O [Example 3, N,N-Di(n-butyl)adriamycin-14-valerate]	30
CCCCC(=O)OCC(=O)[C@]1(O)Cc2c(O)c3c(c(O)c2[C@@H](O[C@H]2C[C@H](N(CC)CC)[C@H](O)[C@H](C)O2)C1)C(=O)c1c(OC)cccc1C3=O	8
COc1cccc2c1C(=O)c1c(O)c3c(c(O)c1C2=O)C[C@@](O)(C(=O)CO)C[C@@H]3O[C@H]1C[C@H](NCc2ccccc2)[C@H](O)[C@H](C)O1	5

Please report MTD for every entry that follows.
1. CCCCN(CCCC)[C@H]1C[C@H](O[C@H]2C[C@](O)(C(=O)CO)Cc3c(O)c4c(c(O)c32)C(=O)c2c(OC)cccc2C4=O)O[C@@H](C)[C@H]1O
2. CCCCC(=O)OCC(=O)[C@]1(O)Cc2c(O)c3c(c(O)c2[C@@H](O[C@H]2C[C@H](N(CCC)CCC)[C@H](O)[C@H](C)O2)C1)C(=O)c1c(OC)cccc1C3=O [Example 2, N,N-Di(n-propyl)adriamycin-14-valerate]

Ans:
1. 25
2. 20

###

For each record, write down the corresponding IC50.
System: CCRF-CEM cell line
Protocol: Growth inhibition of CCRF-CEM cells in culture, 48 hours continuous drug exposure
Type: cell-based, child with lymphoblastic leukemia
Setup conditions: Homo sapiens, 48 hours continuous drug exposure, read-out: ID50, corresponding compounds having different N-substitution
Answers are plain numbers, in nM.

Sample answers from the record:
CCCCCCN(CCCCCC)[C@H]1C[C@H](O[C@H]2C[C@](O)(C(=O)COC(=O)CCCC)Cc3c(O)c4c(c(O)c32)C(=O)c2c(OC)cccc2C4=O)O[C@@H](C)[C@H]1O [di-n-hexyl]	2500
CCCCC(=O)OCC(=O)[C@]1(O)Cc2c(O)c3c(c(O)c2[C@@H](O[C@H]2C[C@H](N(CC)CC)[C@H](O)[C@H](C)O2)C1)C(=O)c1c(OC)cccc1C3=O [diethyl]	300
CCCCC(=O)OCC(=O)[C@]1(O)Cc2c(O)c3c(c(O)c2[C@@H](O[C@H]2C[C@H](N(C)C)[C@H](O)[C@H](C)O2)C1)C(=O)c1c(OC)cccc1C3=O [dimethyl]	20

Below: the item to evaluate.
Field IC50 (CCRF-CEM cell line), entry CCCCC(=O)OCC(=O)[C@]1(O)Cc2c(O)c3c(c(O)c2[C@@H](O[C@H]2C[C@H](NCCC)[C@H](O)[C@H](C)O2)C1)C(=O)c1c(OC)cccc1C3=O [mono-n-propyl, N mono(n-propyl) adriamycin-14-valerate] : 170

###

Protocol: In vivo antitumor activity against murine L1210 leukemia in B6D2F1 male mice
Setup conditions: mouse, in vivo, ip
Measured endpoint: MTD (mg/kg)
Numbers only, in mg/kg.

COc1cccc2c1C(=O)c1c(O)c3c(c(O)c1C2=O)C[C@@](O)(C(=O)CO)C[C@@H]3O[C@H]1C[C@H](N)[C@H](O)[C@H](C)O1	3
CCCCC(=O)OCC(=O)[C@]1(O)Cc2c(O)c3c(c(O)c2[C@@H](O[C@H]2C[C@H](N(CCCC)CCCC)[C@H](O)[C@H](C)O2)C1)C(=O)c1c(OC)cccc1C3=O [Example 3, N,N-Di(n-butyl)adriamycin-14-valerate]	25
CCCCC(=O)OCC(=O)[C@]1(O)Cc2c(O)c3c(c(O)c2[C@@H](O[C@H]2C[C@H](NCc4ccccc4)[C@H](O)[C@H](C)O2)C1)C(=O)c1c(OC)cccc1C3=O [Example 1, N-Benzyladriamycin-14-valerate]	12.5

For reference, reported MTD for CCCCC(=O)OCC(=O)[C@]1(O)Cc2c(O)c3c(c(O)c2[C@@H](O[C@H]2C[C@H](N(CCC)CCC)[C@H](O)[C@H](C)O2)C1)C(=O)c1c(OC)cccc1C3=O [Example 2, N,N-Di(n-propyl)adriamycin-14-valerate] stands at 20

###

Test system: murine L1210 leukemia
Protocol: In vivo antitumor activity against murine L1210 leukemia in B6D2F1 male mice
Setup conditions: L1210; at optimal dose, ip, qd 1-4; day of sacrifice: Examples 1-3 42
Measured endpoint: LTS (tumor free long term survivors)

Sample answers from the record:
CCCCC(=O)OCC(=O)[C@]1(O)Cc2c(O)c3c(c(O)c2[C@@H](O[C@H]2C[C@H](N(CCC)CCC)[C@H](O)[C@H](C)O2)C1)C(=O)c1c(OC)cccc1C3=O [Example 2, N,N-Di(n-propyl)adriamycin-14-valerate]	4/7
COc1cccc2c1C(=O)c1c(O)c3c(c(O)c1C2=O)C[C@@](O)(C(=O)CO)C[C@@H]3O[C@H]1C[C@H](N)[C@H](O)[C@H](C)O1	0/7
CCCCC(=O)OCC(=O)[C@]1(O)Cc2c(O)c3c(c(O)c2[C@@H](O[C@H]2C[C@H](NCc4ccccc4)[C@H](O)[C@H](C)O2)C1)C(=O)c1c(OC)cccc1C3=O [Example 1, N-Benzyladriamycin-14-valerate]	5/7

Below: the item to evaluate.
For reference, reported LTS (tumor free long term survivors) for CCCCC(=O)OCC(=O)[C@]1(O)Cc2c(O)c3c(c(O)c2[C@@H](O[C@H]2C[C@H](N(CCCC)CCCC)[C@H](O)[C@H](C)O2)C1)C(=O)c1c(OC)cccc1C3=O [Example 3, N,N-Di(n-butyl)adriamycin-14-valerate] stands at 5/7

###

System: murine L1210 leukemia
Protocol: In vivo antitumor activity against murine L1210 leukemia in B6D2F1 male mice
Setup conditions: L1210; at optimal dose (Examples 1/2/3: 12.5/20.0/25.0, adriamycin 3.0 mg/kg), ip, qd 1-4
Measured endpoint: % ILS (percent median increase in life span relative to untreated controls)

Sample answers from the record:
COc1cccc2c1C(=O)c1c(O)c3c(c(O)c1C2=O)C[C@@](O)(C(=O)CO)C[C@@H]3O[C@H]1C[C@H](N)[C@H](O)[C@H](C)O1	+90%
CCCCC(=O)OCC(=O)[C@]1(O)Cc2c(O)c3c(c(O)c2[C@@H](O[C@H]2C[C@H](N(CCC)CCC)[C@H](O)[C@H](C)O2)C1)C(=O)c1c(OC)cccc1C3=O [Example 2, N,N-Di(n-propyl)adriamycin-14-valerate]	> +350%
CCCCC(=O)OCC(=O)[C@]1(O)Cc2c(O)c3c(c(O)c2[C@@H](O[C@H]2C[C@H](N(CCCC)CCCC)[C@H](O)[C@H](C)O2)C1)C(=O)c1c(OC)cccc1C3=O [Example 3, N,N-Di(n-butyl)adriamycin-14-valerate]	> +350%

Below: the item to evaluate.
For reference, reported % ILS (percent median increase in life span relative to untreated controls) for CCCCC(=O)OCC(=O)[C@]1(O)Cc2c(O)c3c(c(O)c2[C@@H](O[C@H]2C[C@H](NCc4ccccc4)[C@H](O)[C@H](C)O2)C1)C(=O)c1c(OC)cccc1C3=O [Example 1, N-Benzyladriamycin-14-valerate] stands at > +350%

###

Protocol: in vivo
Setup conditions: mouse, ip
Measured endpoint: MTD (mg/kg)
One number for each entry, in mg/kg.

Sample answers from the record:
CCCCC(=O)OCC(=O)[C@]1(O)Cc2c(O)c3c(c(O)c2[C@@H](O[C@H]2C[C@H](NCc4ccccc4)[C@H](O)[C@H](C)O2)C1)C(=O)c1c(OC)cccc1C3=O [Example 1, N-Benzyladriamycin-14-valerate]	10
CCCCC(=O)OCC(=O)[C@]1(O)Cc2c(O)c3c(c(O)c2[C@@H](O[C@H]2C[C@H](NCCC)[C@H](O)[C@H](C)O2)C1)C(=O)c1c(OC)cccc1C3=O [mono-n-propyl, N mono(n-propyl) adriamycin-14-valerate]	15

Below: the item to evaluate.
For reference, reported MTD for CCCCCCN(CCCCCC)[C@H]1C[C@H](O[C@H]2C[C@](O)(C(=O)COC(=O)CCCC)Cc3c(O)c4c(c(O)c32)C(=O)c2c(OC)cccc2C4=O)O[C@@H](C)[C@H]1O [di-n-hexyl] stands at 40
